All figures here come from patent US5229410A.

Target: central 5-HT1D binding sites (Bos taurus)
Construct: Bovine brains were obtained from Pel-Freeze Biologicals, and the caudate nuclei were dissected out; tissue Pel-Freeze Biologicals; host or cells: bovine caudate nuclei (washed membranes)
Sequence (F1MGM3 1-403): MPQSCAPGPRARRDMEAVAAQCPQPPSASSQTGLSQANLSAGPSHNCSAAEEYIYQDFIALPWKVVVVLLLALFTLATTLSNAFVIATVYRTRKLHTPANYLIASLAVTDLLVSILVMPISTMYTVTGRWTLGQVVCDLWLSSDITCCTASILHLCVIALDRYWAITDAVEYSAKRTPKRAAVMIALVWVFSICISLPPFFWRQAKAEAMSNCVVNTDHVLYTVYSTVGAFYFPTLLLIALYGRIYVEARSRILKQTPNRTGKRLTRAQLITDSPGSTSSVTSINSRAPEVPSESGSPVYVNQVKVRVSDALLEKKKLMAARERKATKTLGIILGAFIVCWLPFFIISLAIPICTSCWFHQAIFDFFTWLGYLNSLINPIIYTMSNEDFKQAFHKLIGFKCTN
Assay: 5-HT1D binding ([3H]5-HT displacement, bovine caudate nuclei membranes)
Conditions: [3H]5-HT 1.7-1.9 nM; bovine caudate; 8-OH-DPTA and mesulergine 100 nM as masks; pH 7.4; 37° C., 10 min; read-out: 5HT1D IC50 (concentration required to inhibit 50% of the binding)
assayMetric: log10 IC50 (log10 of the value in nM)

molecule: CCCN(CCC)C1Cc2c(C(=O)C(C)C)ccc3c2C(CN3)C1 (single isomer, unassigned; (-))
tgt: central 5-HT1D binding sites (Bos taurus)
log10 IC50: 3.50
//
molecule: CCCN(CCC)[C@@H]1Cc2c(C(C)=O)ccc3c2[C@H](CN3)C1
tgt: central 5-HT1D binding sites (Bos taurus)
log10 IC50: 3.93
//
molecule: CCCN(CCC)[C@H]1Cc2c(C(=O)c3ccccc3)ccc3c2[C@@H](CN3)C1
tgt: central 5-HT1D binding sites (Bos taurus)
log10 IC50: 0.25
//
molecule: CCCN(CCC)[C@H]1Cc2c(C(C)=O)ccc3c2[C@@H](CN3)C1
tgt: central 5-HT1D binding sites (Bos taurus)
log10 IC50: 0.80
//
molecule: CCCN(CCC)[C@H]1Cc2c(C(=O)Cc3ccccc3)ccc3c2[C@@H](CN3)C1
tgt: central 5-HT1D binding sites (Bos taurus)
log10 IC50: 0.43
